MIC90: recorded values
test system: Klebsiella aerogenes; experiment: Antibacterial activity against Enterobacter aerogenes ATCC 13048 after 18 to 24 hrs by two-fold serial dilution method; format: functional

molecule	MIC90 (µg/mL)
Cc1ccc2c(c1)C(=O)C(=O)N2CCCOC(=O)c1cn(C2CC2)c2cc(N3CCN(CCCN4C(=O)C(=O)c5cc(C)ccc54)CC3)c(F)cc2c1=O	128
C[C@H]1COc2c(N3CCN(C)CC3)c(F)cc3c(=O)c(C(=O)O)cn1c23.C[C@H]1COc2c(N3CCN(C)CC3)c(F)cc3c(=O)c(C(=O)O)cn1c23.O [LEVOFLOXACIN]	0.06
CCO/N=C1\C(=O)N(CCCN2CCN(c3cc4c(cc3F)c(=O)c(C(=O)OCCCN3C(=O)/C(=N/OCC)c5cc(C)ccc53)cn4C3CC3)CC2)c2ccc(C)cc21	64

###

This listing pairs compounds with measured Tmax.
assay: Tmax in ICR mouse at 50 mg/kg, po administered as single dose by HPLC analysis; format: ADME, organism-based; details: in vivo
measurement_kind: Tmax (h)

                               input_smiles  units  number
0  Cc1ccc2c(c1)C(=O)C(=O)N2CCCN1CCN(c2cc3c(cc2F)c(=O)c(C(=O)O)cn3C2CC2)CC1      h     1.3
1  CO/N=C1\C(=O)N(CCCN2CCN(c3cc4c(cc3F)c(=O)c(C(=O)O)cn4C3CC3)CC2)c2ccc(C)cc21      h     1.2
2  O=C(O)c1cn(C2CC2)c2cc(N3CCNCC3)c(F)cc2c1=O      h     1.8

###

test system: Enterococcus faecalis; assay: Antibacterial activity against Enterococcus faecalis ATCC 29212 after 18 to 24 hrs by two-fold serial dilution method; assay type: functional
measurement_kind: MIC90 (µg/mL)

In [3]: df
Out[3]:
                                input_smiles  measurement_kind  number
 0  Cc1ccc2c(c1)C(=O)C(=O)N2CCCN1CCN(c2cc3c(cc2F)c(=O)c(C(=O)O)cn3C2CC2)CC1             MIC90     0.5
 1  CCO/N=C1\C(=O)N(CCCN2CCN(c3cc4c(cc3F)c(=O)c(C(=O)O)cn4C3CC3)CC2)c2ccccc21             MIC90       1
 2  C[C@H]1COc2c(N3CCN(C)CC3)c(F)cc3c(=O)c(C(=O)O)cn1c23.C[C@H]1COc2c(N3CCN(C)CC3)c(F)cc3c(=O)c(C(=O)O)cn1c23.O             MIC90       1
 3  O=C(O)c1cn(C2CC2)c2cc(N3CCNCC3)c(F)cc2c1=O             MIC90     0.5
 4  CO/N=C1\C(=O)N(CCCN2CCN(c3cc4c(cc3F)c(=O)c(C(=O)OCCCN3C(=O)/C(=N/OC)c5cc(C)ccc53)cn4C3CC3)CC2)c2ccc(C)cc21             MIC90      32
 5  O=C1C(=O)N(CCCN2CCN(c3cc4c(cc3F)c(=O)c(C(=O)O)cn4C3CC3)CC2)c2ccccc21             MIC90       1
 6  CO/N=C1\C(=O)N(CCCN2CCN(c3cc4c(cc3F)c(=O)c(C(=O)OCCCN3C(=O)/C(=N/OC)c5ccccc53)cn4C3CC3)CC2)c2ccccc21             MIC90      64
 7  CCO/N=C1\C(=O)N(CCCN2CCN(c3cc4c(cc3F)c(=O)c(C(=O)OCCCN3C(=O)/C(=N/OCC)c5ccccc53)cn4C3CC3)CC2)c2ccccc21             MIC90      64
 8  Cc1ccc2c(c1)C(=O)C(=O)N2CCCOC(=O)c1cn(C2CC2)c2cc(N3CCN(CCCN4C(=O)C(=O)c5cc(C)ccc54)CC3)c(F)cc2c1=O             MIC90      64
 9  CO/N=C1\C(=O)N(CCCN2CCN(c3cc4c(cc3F)c(=O)c(C(=O)O)cn4C3CC3)CC2)c2ccc(C)cc21             MIC90     0.5
10  CO/N=C1\C(=O)N(CCCN2CCN(c3cc4c(cc3F)c(=O)c(C(=O)O)cn4C3CC3)CC2)c2ccccc21             MIC90     0.5

###

Here the recorded AUC(0-inf) is given for each entry.
assay: AUC (0 to infinity) in ICR mouse at 50 mg/kg, po administered as single dose by HPLC analysis; type: ADME, organism-based; set-up: dose 50 mg/kg, route oral, time infinity; details: in vivo
measurement_kind: AUC(0-inf) (ng·h/mL)

>>> df
                               input_smiles  number
0  O=C(O)c1cn(C2CC2)c2cc(N3CCNCC3)c(F)cc2c1=O   17800
1  Cc1ccc2c(c1)C(=O)C(=O)N2CCCN1CCN(c2cc3c(cc2F)c(=O)c(C(=O)O)cn3C2CC2)CC1    4990
2  CO/N=C1\C(=O)N(CCCN2CCN(c3cc4c(cc3F)c(=O)c(C(=O)O)cn4C3CC3)CC2)c2ccc(C)cc21    2860

###

Measured MIC90 by item
system: Pseudomonas aeruginosa; experiment: Antibacterial activity against Pseudomonas aeruginosa ATCC 27853 after 18 to 24 hrs by two-fold serial dilution method; type: functional

compound	MIC90
CCO/N=C1\C(=O)N(CCCN2CCN(c3cc4c(cc3F)c(=O)c(C(=O)O)cn4C3CC3)CC2)c2ccccc21	1 µg/mL
CO/N=C1\C(=O)N(CCCN2CCN(c3cc4c(cc3F)c(=O)c(C(=O)OCCCN3C(=O)/C(=N/OC)c5cc(C)ccc53)cn4C3CC3)CC2)c2ccc(C)cc21	32 µg/mL
CCO/N=C1\C(=O)N(CCCN2CCN(c3cc4c(cc3F)c(=O)c(C(=O)OCCCN3C(=O)/C(=N/OCC)c5ccccc53)cn4C3CC3)CC2)c2ccccc21	64 µg/mL
CO/N=C1\C(=O)N(CCCN2CCN(c3cc4c(cc3F)c(=O)c(C(=O)O)cn4C3CC3)CC2)c2ccccc21	1 µg/mL
O=C1C(=O)N(CCCOC(=O)c2cn(C3CC3)c3cc(N4CCN(CCCN5C(=O)C(=O)c6ccccc65)CC4)c(F)cc3c2=O)c2ccccc21	> 128 µg/mL
Cc1ccc2c(c1)C(=O)C(=O)N2CCCN1CCN(c2cc3c(cc2F)c(=O)c(C(=O)O)cn3C2CC2)CC1	2 µg/mL
CO/N=C1\C(=O)N(CCCN2CCN(c3cc4c(cc3F)c(=O)c(C(=O)O)cn4C3CC3)CC2)c2ccc(C)cc21	0.5 µg/mL
O=C(O)c1cn(C2CC2)c2cc(N3CCNCC3)c(F)cc2c1=O [CIPROFLOXACIN]	0.25 µg/mL
CCO/N=C1\C(=O)N(CCCN2CCN(c3cc4c(cc3F)c(=O)c(C(=O)OCCCN3C(=O)/C(=N/OCC)c5cc(C)ccc53)cn4C3CC3)CC2)c2ccc(C)cc21	128 µg/mL
CCO/N=C1\C(=O)N(CCCN2CCN(c3cc4c(cc3F)c(=O)c(C(=O)O)cn4C3CC3)CC2)c2ccc(C)cc21	1 µg/mL
C[C@H]1COc2c(N3CCN(C)CC3)c(F)cc3c(=O)c(C(=O)O)cn1c23.C[C@H]1COc2c(N3CCN(C)CC3)c(F)cc3c(=O)c(C(=O)O)cn1c23.O [LEVOFLOXACIN]	2 µg/mL
Cc1ccc2c(c1)C(=O)C(=O)N2CCCOC(=O)c1cn(C2CC2)c2cc(N3CCN(CCCN4C(=O)C(=O)c5cc(C)ccc54)CC3)c(F)cc2c1=O	128 µg/mL

###

tested on: Acinetobacter calcoaceticus; experiment: Antibacterial activity against Acinetobacter calcoaceticus ATCC 19606 after 18 to 24 hrs by two-fold serial dilution method; assay type: functional
measurement_kind: MIC90 (µg/mL)

                               input_smiles  measurement_kind  sign_qualifier  number
0  CCO/N=C1\C(=O)N(CCCN2CCN(c3cc4c(cc3F)c(=O)c(C(=O)OCCCN3C(=O)/C(=N/OCC)c5ccccc53)cn4C3CC3)CC2)c2ccccc21             MIC90               >     128
1  O=C1C(=O)N(CCCOC(=O)c2cn(C3CC3)c3cc(N4CCN(CCCN5C(=O)C(=O)c6ccccc65)CC4)c(F)cc3c2=O)c2ccccc21             MIC90               =     128
2  O=C1C(=O)N(CCCN2CCN(c3cc4c(cc3F)c(=O)c(C(=O)O)cn4C3CC3)CC2)c2ccccc21             MIC90               =       1
3  CCO/N=C1\C(=O)N(CCCN2CCN(c3cc4c(cc3F)c(=O)c(C(=O)OCCCN3C(=O)/C(=N/OCC)c5cc(C)ccc53)cn4C3CC3)CC2)c2ccc(C)cc21             MIC90               =      64
4  CO/N=C1\C(=O)N(CCCN2CCN(c3cc4c(cc3F)c(=O)c(C(=O)OCCCN3C(=O)/C(=N/OC)c5ccccc53)cn4C3CC3)CC2)c2ccccc21             MIC90               =     128
